# Tested on: Cathepsin D (CatD) (Homo sapiens (Human), UniProt P07339)
# Sequence (P07339 65-412, species assumed): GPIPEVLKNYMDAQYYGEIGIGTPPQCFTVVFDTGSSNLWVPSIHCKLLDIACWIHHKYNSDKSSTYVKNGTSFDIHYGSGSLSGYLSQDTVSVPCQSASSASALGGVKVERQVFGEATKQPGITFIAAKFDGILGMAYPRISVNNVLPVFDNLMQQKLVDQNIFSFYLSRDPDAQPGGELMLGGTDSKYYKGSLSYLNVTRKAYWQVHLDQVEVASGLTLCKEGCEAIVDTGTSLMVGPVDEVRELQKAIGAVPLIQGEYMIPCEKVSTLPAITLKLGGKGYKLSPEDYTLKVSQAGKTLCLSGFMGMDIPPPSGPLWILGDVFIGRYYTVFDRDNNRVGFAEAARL
# Measurement description: CatD assay
# Assay type: biochemical
# Condition set: read-out: IC50 IP (μM) CatD
Reported log10 IC50 values for a set of compounds
Scale: log10; quantity: IC50; unit before log: µM

Illustrative cases are given below, each with its answer.
- CC#CCOc1cnc(/C(F)=C/c2ccc(F)c([C@@]3(C)N=C(N)S[C@@]4(S(C)(=O)=O)C[C@H]43)c2)cn1: 1.68
- CN(C)C(=O)[C@]12C[C@H]1[C@@](C)(c1cc(/C=C(\F)c3cnc(Br)cn3)ccc1F)N=C(N)S2: 1.59
- C#C[C@H](C)Oc1cnc(/C(F)=C/c2ccc(F)c([C@@]3(C)N=C(N)S[C@@]4(S(C)(=O)=O)C[C@H]43)c2)cn1: 1.95
- CC#CCOc1cnc(/C(F)=C/c2ccc(F)c([C@@]3(C)N=C(N)S[C@@]4(COC)C[C@H]43)c2)cn1: 2.69
- CN(C)C(=O)[C@]12C[C@H]1[C@@](C)(c1cc(/C=C(\F)c3ccc(C#N)cc3F)ccc1F)N=C(N)S2: 2.31
- CN(C)C(=O)[C@]12C[C@H]1[C@@](C)(c1cc(/C=C(\F)c3cnc(OCC4CC4)cn3)ccc1F)N=C(N)S2: 1.83
- CN(C)C(=O)[C@]12C[C@H]1[C@@](C)(c1cc(/C=C\F)ccc1F)N=C(N)S2: 0.97
- CNC(=O)[C@]12C[C@H]1[C@@](C)(c1cc(/C=C(\F)c3ccc(C#CC(C)(C)C)cn3)ccc1F)N=C(N)S2: 1.41

State log10 IC50 (Cathepsin D (CatD) (Homo sapiens (Human), UniProt P07339)) of C[C@@H]1[C@H](F)CCN1C(=O)[C@]12C[C@H]1[C@@](C)(c1cc(/C=C(\F)c3ccc(C#N)cn3)ccc1F)N=C(N)S2 .
1.04
